Recorded -TdeltaS by entry
- System: Quadruplex DNA
- PROCEDURE TEXT: Binding affinity to TA-core G4 DNA 5'-TAGGGTTAGGGTTAGGGTTAGGG-3' (unknown origin) assessed as change in entropy measured under molecular crowding conditions by isothermal titration calorimetry
- Assay type: nucleic-acid assay
- MEASUREMENT CONTEXT: Homo sapiens
Give the quantity in kcal/mol, number only.

Illustrative cases are given below, each with its answer.
CN1CCCNC(=O)CC2(CCCCC2)CC(=O)NCCCN(C)CCCN2C(=O)c3ccc4c5c(ccc(c35)C2=O)C(=O)N(CCC1)C4=O; 35
CN1CCCNC(=O)CC(C)(C)CC(=O)NCCCN(C)CCCN2C(=O)c3ccc4c5c(ccc(c35)C2=O)C(=O)N(CCC1)C4=O; 21
CN1CCCNC(=O)c2cccc(c2)C(=O)NCCCN(C)CCCN2C(=O)c3ccc4c5c(ccc(c35)C2=O)C(=O)N(CCC1)C4=O; 27

Query string: Please report the recorded -TdeltaS for `CN1CCCNC(=O)CCCC(=O)NCCCN(C)CCCN2C(=O)c3ccc4c5c(ccc(c35)C2=O)C(=O)N(CCC1)C4=O` .
Result string: 14

---

- Tested on: Quadruplex DNA
- PROCEDURE TEXT: Binding affinity to c-myc G4 DNA 5'-TGAGGGTGGGGAGGGTGGGGAA-3' (unknown origin) assessed as Gibbs free energy change measured under molecular crowding conditions by isothermal titration calorimetry
- Assay type: nucleic-acid assay
- MEASUREMENT CONTEXT: Homo sapiens
REPORTED PROPERTY: deltaG
Write the numeric value and append its unit.

CN1CCCNC(=O)c2cccc(c2)C(=O)NCCCN(C)CCCN2C(=O)c3ccc4c5c(ccc(c35)C2=O)C(=O)N(CCC1)C4=O; -8 kcal/mol

Query string: Reported deltaG, molecule `CN1CCCNC(=O)CCCC(=O)NCCCN(C)CCCN2C(=O)c3ccc4c5c(ccc(c35)C2=O)C(=O)N(CCC1)C4=O` : ____
Result string: -8.5 kcal/mol

Query string: How about this molecule: `CN1CCCNC(=O)CC2(CCCCC2)CC(=O)NCCCN(C)CCCN2C(=O)c3ccc4c5c(ccc(c35)C2=O)C(=O)N(CCC1)C4=O`
Result string: -8 kcal/mol

Query string: Do the same for `CN1CCCNC(=O)CC(C)(C)CC(=O)NCCCN(C)CCCN2C(=O)c3ccc4c5c(ccc(c35)C2=O)C(=O)N(CCC1)C4=O` please
Result string: -7.6 kcal/mol

---

- Tested on: Quadruplex DNA
- PROCEDURE TEXT: Binding affinity to TA-core G4 DNA 5'-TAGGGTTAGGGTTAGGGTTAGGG-3' (unknown origin) assessed as change in enthalpy measured under molecular crowding conditions by isothermal titration calorimetry
- Assay type: nucleic-acid assay
- MEASUREMENT CONTEXT: Homo sapiens
We begin with a simple list: items and their reported deltaH.
Response body: numeric value in kJ/mol, unit text excluded.

Worked cases, deltaH given:
CN1CCCNC(=O)CCCC(=O)NCCCN(C)CCCN2C(=O)c3ccc4c5c(ccc(c35)C2=O)C(=O)N(CCC1)C4=O; -92
CN1CCCNC(=O)c2cccc(c2)C(=O)NCCCN(C)CCCN2C(=O)c3ccc4c5c(ccc(c35)C2=O)C(=O)N(CCC1)C4=O; -146
CN1CCCNC(=O)CC(C)(C)CC(=O)NCCCN(C)CCCN2C(=O)c3ccc4c5c(ccc(c35)C2=O)C(=O)N(CCC1)C4=O; -121

// switching to the query molecule
Query string: Form field: reported deltaH of `CN1CCCNC(=O)CC2(CCCCC2)CC(=O)NCCCN(C)CCCN2C(=O)c3ccc4c5c(ccc(c35)C2=O)C(=O)N(CCC1)C4=O`
Result string: -180
